tested.system: MMP-1 (Homo sapiens)
Sequence (P03956 100-469): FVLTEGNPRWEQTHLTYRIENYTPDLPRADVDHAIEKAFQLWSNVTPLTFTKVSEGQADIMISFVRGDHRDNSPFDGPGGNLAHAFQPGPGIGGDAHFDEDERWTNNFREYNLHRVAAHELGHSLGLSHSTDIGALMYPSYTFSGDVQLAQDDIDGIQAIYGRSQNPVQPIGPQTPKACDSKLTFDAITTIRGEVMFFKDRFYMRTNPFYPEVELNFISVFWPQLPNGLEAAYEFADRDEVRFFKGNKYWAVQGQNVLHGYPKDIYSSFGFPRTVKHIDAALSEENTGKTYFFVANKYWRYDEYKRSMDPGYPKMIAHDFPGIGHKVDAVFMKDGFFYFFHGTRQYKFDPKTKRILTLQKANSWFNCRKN
assay.method.text: biochemical
condition.set: MMP-1 IC50
pIC50: −log10 of the molar value.
Each entry gets F if its pIC50 stays under 6, and T if its pIC50 is 6 or above.

| chemical.string | label.value |
| --- | --- |
| COc1ccc(S(=O)(=O)N(Cc2cccnc2)c2c(C(=O)NO)cnc3cc(C)nn23)cc1 | T |
| COc1ccc(S(=O)(=O)N(Cc2cccnc2)c2c(C(=O)NO)cnc3c(Br)cccc23)cc1 | T |
| COc1ccc(S(=O)(=O)N(Cc2ccccc2)c2c(C(=O)NO)cnc3c2c(C)nn3C)cc1 | T |

## Input Given CN(c1c(C(=O)NO)cnc2ccc(I)cc12)S(=O)(=O)c1ccc(Oc2ccncc2)cc1 , state whether its pIC50 is at least 6.
## Output T

## Input Given CN(c1c(C(=O)NO)cnc2c1c(-c1ccccc1)nn2C)S(=O)(=O)c1ccc(Oc2ccncc2)cc1 , state whether its pIC50 is at least 6.
## Output F

## Input Given O=C(NO)c1cnc2cc(C(F)(F)F)ccc2c1N(Cc1cccnc1)S(=O)(=O)c1ccc(-c2ccccc2)cc1 , state whether its pIC50 is at least 6.
## Output F

###

tested.system: TACE (Homo sapiens, UniProt P78536)
Sequence (P78536 215-824): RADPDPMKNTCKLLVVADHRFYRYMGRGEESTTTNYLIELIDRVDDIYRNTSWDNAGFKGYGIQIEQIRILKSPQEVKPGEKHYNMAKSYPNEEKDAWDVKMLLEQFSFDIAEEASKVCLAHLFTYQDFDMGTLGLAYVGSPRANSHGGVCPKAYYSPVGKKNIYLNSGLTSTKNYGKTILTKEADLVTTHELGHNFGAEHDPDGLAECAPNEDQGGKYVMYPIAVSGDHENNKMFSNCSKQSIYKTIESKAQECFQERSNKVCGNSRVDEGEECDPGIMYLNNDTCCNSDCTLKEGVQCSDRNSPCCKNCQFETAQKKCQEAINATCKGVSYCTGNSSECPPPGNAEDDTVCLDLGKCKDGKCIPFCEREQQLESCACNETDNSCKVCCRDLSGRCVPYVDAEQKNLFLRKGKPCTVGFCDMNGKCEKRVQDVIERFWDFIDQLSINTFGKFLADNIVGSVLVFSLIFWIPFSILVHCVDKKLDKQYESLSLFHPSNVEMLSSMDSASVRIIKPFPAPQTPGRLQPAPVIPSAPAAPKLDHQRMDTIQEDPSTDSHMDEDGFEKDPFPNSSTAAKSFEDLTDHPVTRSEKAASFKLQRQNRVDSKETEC
assay.method.text: TACE inhibition (fluorescent peptidyl substrate)
Format: biochemical
condition.set: at 1 μM concentration; read-out: TACE % inhibition
experimental.readout: inhibition at 1 µM (%)
Answer in %, number only, no unit symbol.

| chemical.string | inhibition at 1 µM [%] |
| --- | --- |
| CN(c1c(C(=O)NO)cnc2c1c(-c1ccccc1)nn2C)S(=O)(=O)c1ccc(Oc2ccncc2)cc1 | 34.9 |

## Input Recall the recorded inhibition at 1 µM for COc1ccc(S(=O)(=O)N(Cc2cccnc2)c2c(C(=O)NO)cnc3cc(C(F)(F)F)ccc23)cc1 with TACE (Homo sapiens, UniProt P78536) and state it.
## Output 36

## Input Recall the recorded inhibition at 1 µM for COc1ccc(S(=O)(=O)N(Cc2ccccc2)c2c(C(=O)NO)cnc3cc(Br)ccc23)cc1 with TACE (Homo sapiens, UniProt P78536) and state it.
## Output 24

## Input Recall the recorded inhibition at 1 µM for Cc1noc2ncc(C(=O)NO)c(N(C)S(=O)(=O)c3ccc(Oc4ccncc4)cc3)c12 with TACE (Homo sapiens, UniProt P78536) and state it.
## Output 41.6

###

tested.system: MMP-13 (Homo sapiens, UniProt P45452)
assay.method.text: In vivo MMP inhibition test procedure (implanted dialysis tubing containing enzyme)
Parameters: species or system rat or mouse
condition.set: dose 25 mg/kg, p.o. vs MMP-13
Item-by-item account of in-vivo MMP % inhibition

## Input Recall the recorded in-vivo MMP % inhibition for CN(c1c(C(=O)NO)cnc2c1c(-c1ccccc1)nn2C)S(=O)(=O)c1ccc(Oc2ccncc2)cc1 [Example 93] with MMP-13 (Homo sapiens, UniProt P45452) and state it.
## Output 49% (25)
